Target system: Muscarinic acetylcholine receptor M1 (Oryctolagus cuniculus)
Test protocol: Efficacy at muscarinic acetylcholine receptor M1 measured by the ability to inhibit the electrically stimulated twitch of the rabbit vas deferens
Metric name: pIC50
Formally, pIC50 is defined as -log10 of the concentration c, with c in mol/L.

I am curious: what pIC50 value has been reported for `CCCCCCSc1nsnc1C1=CCCN(C)C1` ?
12.00

Values compiled from BindingDB's records for doi:10.1021/jm00100a005.
